Target desc: T1, human SEMA4A expressed on cells (UniProt ID Q9H3S1, isoform 1) (human, UniProt Q9H3S1 33-761)
T1 sequence: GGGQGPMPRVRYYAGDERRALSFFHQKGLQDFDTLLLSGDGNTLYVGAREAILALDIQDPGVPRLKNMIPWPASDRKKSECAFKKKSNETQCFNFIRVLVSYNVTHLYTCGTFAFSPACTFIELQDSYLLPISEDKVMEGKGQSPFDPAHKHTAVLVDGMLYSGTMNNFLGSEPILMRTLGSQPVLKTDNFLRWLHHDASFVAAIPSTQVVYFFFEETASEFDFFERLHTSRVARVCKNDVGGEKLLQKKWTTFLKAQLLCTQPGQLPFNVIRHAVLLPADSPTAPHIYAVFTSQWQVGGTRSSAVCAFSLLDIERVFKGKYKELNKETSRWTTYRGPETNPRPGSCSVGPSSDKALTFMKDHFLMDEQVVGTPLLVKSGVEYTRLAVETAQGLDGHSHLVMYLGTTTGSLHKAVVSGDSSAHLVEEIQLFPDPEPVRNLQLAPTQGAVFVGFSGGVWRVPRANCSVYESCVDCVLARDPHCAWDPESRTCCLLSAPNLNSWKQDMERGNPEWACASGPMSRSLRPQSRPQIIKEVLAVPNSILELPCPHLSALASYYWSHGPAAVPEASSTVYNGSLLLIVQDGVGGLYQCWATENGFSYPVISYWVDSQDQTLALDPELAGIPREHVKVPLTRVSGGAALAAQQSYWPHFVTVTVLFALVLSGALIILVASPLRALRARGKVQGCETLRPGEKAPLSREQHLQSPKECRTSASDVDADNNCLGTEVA
Experiment: cell-based or functional assay

{"columns": ["Binder", "IC50 (pM), Fab-ZAP cell kill, NCI-H929"],
 "data": [
  ["5Hg1-5Lg1 human Alya IgG1 (antibody, V domains shown, Humanised 5E3; human IgG1 Alya constant (239iCys, S442C, EU), lambda light chain; purified, unconjugated) VH: QVQLVQSGAEVKKPGASVKVSCKASGYTFTDYWMHWVRQAPGQGLEWMGAIDTSDSYTSYNQKFKGRVTMTRDTSTSTVYMELSSLRSEDTAVYYCARDYGNFYYYAMDYWGQGTLVTVSS VL: QAVVTQEPSLTVSPGGTVTLTCRSSTGAVTTSNYANWFQQKPGQAPRTLIYGTNNRAPWTPARFSGSLLGGKAALTLSGAQPEDEAEYYCALWYSNHWVFGGGTKLTVL", "66 pM"],
  ["5Hg4-5Lg4 human Alya IgG1 (antibody, V domains shown, Humanised 5E3; human IgG1 Alya constant (239iCys, S442C, EU), lambda light chain; purified, unconjugated) VH: QVQLVQSGSELKKPGASVKVSCKASGYTFTDYWMHWVRQAPGQGLEWMGAIDTSDSYTSYNQKFKGRFVFSLDTSVSTAYLQICSLKAEDTAVYYCARDYGNFYYYAMDYWGQGTLVTVSS VL: QSALTQPPSVSGSPGQSVTISCRSSTGAVTTSNYANWYQQPPGTAPKLMIYGTNNRAPGVPDRFSGSKSGNTASLTISGLQAEDEADYYCALWYSNHWVFGGGTKLTVL", "119 pM"],
  ["5Hg2-5Lg1 human Alya IgG1 (antibody, V domains shown, Humanised 5E3; human IgG1 Alya constant (239iCys, S442C, EU), lambda light chain; purified, unconjugated) VH: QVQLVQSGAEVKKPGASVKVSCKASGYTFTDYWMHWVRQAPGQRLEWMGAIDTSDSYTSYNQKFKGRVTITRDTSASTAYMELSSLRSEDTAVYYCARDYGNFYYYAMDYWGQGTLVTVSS VL: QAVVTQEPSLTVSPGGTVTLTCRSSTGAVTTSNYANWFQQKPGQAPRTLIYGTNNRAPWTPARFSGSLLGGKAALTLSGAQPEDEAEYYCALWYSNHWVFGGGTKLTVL", "38 pM"]
]}
